Where these numbers come from: ChEMBL document CHEMBL3352725

# assay_method_text: Metabolic stability in mouse liver microsomes assessed as compound remaining after 1 hr
# Format: ADME
# study_conditions: read-out: Stability

{"columns": ["compound", "display_unit", "remaining at 1 h"],
 "data": [
  ["CC(C)C[C@@H](/C=C/CC(=O)NC1CC(C)(C)N([O])C(C)(C)C1)NC(=O)OCC[S+]([O-])CC1(C)COC1 (mixture of isomers)", "%", 16]
]}

* * *

# assay_method_text: Aqueous solubility of the compound in H2O after 24 hrs incubation at 30 degC by LCMS analysis
# Assay type: physicochemical
# study_conditions: water

{"columns": ["molecule", "solubility at 24 h, µg/mL"],
 "data": [
  ["COc1ccc2cc([C@H](C)C(=O)OCC[S+]([O-])CC3(C)COC3)ccc2c1 (mixture of isomers)", 820],
  ["Cc1ccc(Cl)c(Nc2ccccc2C(=O)OCC[S+]([O-])CC2(C)COC2)c1Cl (stereo not drawn)", 250],
  ["Cc1cc(NS(=O)(=O)c2ccc(NC(=O)OCC[S+]([O-])CC3(C)COC3)cc2)no1 (stereo not drawn)", 1000]
]}
